Form field: Test 1 ED 50% (dose which increases survival time of the animals by 50%), hypoxia (one value per entry).
# test-description: Protection from acute cerebral hypoxia (survival time of mice in 3.5 parts O2/96.5 parts N2)
# Type: in vivo
# condition-context: female mice, i.p., hypoxia 3.5 parts oxygen/96.5 parts nitrogen
measurement-type: Test 1 ED 50% (dose which increases survival time of the animals by 50%), hypoxia (mg/kg)

INSERT INTO assay_data (compound, unit_spec, data_value) VALUES
  ('OC(COc1ccc(F)cc1)CN1CCN(CCCC(c2ccc(F)cc2)c2ccc(F)cc2)CC1 (single isomer, unassigned; (+)) [Example 30]', 'mg/kg', 4.0),
  ('OC(COc1ccc(F)cc1)CN1CCN(CCCC(c2ccc(F)cc2)c2ccc(F)cc2)CC1 (single isomer, unassigned; (-)) [Example 29]', 'mg/kg', 1.6),
  ('OC(COc1ccc(F)cc1)CN1CCN(CCC(c2ccccc2)c2ccccc2)CC1 (single isomer, unassigned; (+)) [Example 32]', 'mg/kg', 4.2),
  ('OC(COc1ccccc1Cl)CN1CCN(CCCC(c2ccc(F)cc2)c2ccc(F)cc2)CC1 (stereo not shown) [Example 13]', 'mg/kg', 6.9);
